# credit: the supplement of paper PMC8960247

Readings of relative viability for the listed compounds
# Tested on: 621-103 (TSC2-rescued);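 further: immortalized renal angiomyolipoma cells stably carrying empty vector or TSC2, dosed in 384-well plates in DMEM, viability normalized to vehicle-treated wells within each plate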
# measurement_notes: relative viability vs DMSO; higher = less cytotoxic
# protocol_conditions: 0.0001 µM; serum: 10% FBS; 72 h
Counter-ions that a name gives are not always drawn.
# value in %; strip the unit string

Query string: Find the measured relative viability of CN(C)CCCN1c2ccccc2Sc2ccc(Cl)cc21 [Chlorpromazine HCl] and report it.
Result string: 97.7

***
Query string: Find the measured relative viability of O=C(c1ccc(F)cc1)N1CCC[C@H](c2nc(-c3ccc(F)cc3)no2)C1 and report it.
Result string: 102

Query string: Find the measured relative viability of O=C(Nc1c[nH]nc1-c1nc2ccc(CN3CCOCC3)cc2[nH]1)NC1CC1 and report it.
Result string: 73
